System: GSK-3β
Experiment: GSK-3β kinase assay (phosphorylation of CREB phosphopeptide)
Format: biochemical, rabbit
Settings: ratio of IC50 values
Entries and their Selectivity, IC50 (CDK2/E)/IC50 (GSK3β) values follow.

Cc1[nH]c(Br)c(C)c1-c1ccnc(Nc2cccc([N+](=O)[O-])c2)n1 1.3
Cc1ccc(Nc2nccc(-c3c(C)[nH]c(C#N)c3C)n2)cc1I 0.5
Cc1c(-c2ccnc(Nc3ccc(N(C)C)c([N+](=O)[O-])c3)n2)c(C)n(C)c1C#N 8.4
Cc1c(-c2ccnc(Nc3ccc(N(C)C)cc3)n2)c(C)n(C)c1C#N 9.2

# context switch: different compound, same Selectivity, IC50 (CDK2/E)/IC50 (GSK3β)
Query (compound): Cc1ccc(Nc2nccc(-c3sc(=O)n(C)c3C)n2)cc1[N+](=O)[O-] ; field requested: Selectivity, IC50 (CDK2/E)/IC50 (GSK3β)
4.5
